Please respond with reported binding response (% of control) for every item in the list.
# Target entity: Mitogen-activated protein kinase kinase kinase 3 (Homo sapiens) (UniProt Q99759)
# Sequence (Q99759 whole entry, looked up): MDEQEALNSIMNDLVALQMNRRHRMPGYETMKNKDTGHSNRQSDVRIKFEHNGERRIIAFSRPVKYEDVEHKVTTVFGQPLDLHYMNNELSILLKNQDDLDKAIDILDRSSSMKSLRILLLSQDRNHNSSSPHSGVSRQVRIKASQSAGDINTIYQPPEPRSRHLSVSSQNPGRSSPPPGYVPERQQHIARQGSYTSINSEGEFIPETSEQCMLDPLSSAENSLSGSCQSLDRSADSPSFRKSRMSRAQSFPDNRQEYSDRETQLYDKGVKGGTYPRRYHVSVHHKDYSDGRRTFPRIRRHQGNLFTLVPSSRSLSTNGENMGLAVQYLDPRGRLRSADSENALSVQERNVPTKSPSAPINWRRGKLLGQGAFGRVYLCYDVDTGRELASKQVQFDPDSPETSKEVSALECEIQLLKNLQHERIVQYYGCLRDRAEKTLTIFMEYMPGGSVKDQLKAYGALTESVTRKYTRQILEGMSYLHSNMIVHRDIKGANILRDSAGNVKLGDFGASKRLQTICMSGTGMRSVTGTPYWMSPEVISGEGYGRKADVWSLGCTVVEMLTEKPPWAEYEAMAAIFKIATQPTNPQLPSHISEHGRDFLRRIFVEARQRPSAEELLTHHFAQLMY
# Method description: modulators of MEKK3-MEK5 PB1 binding, primary screen, biochemical, wildtype MEKK3, multiplex bead flow cytometry, Alexa488-MEK5 (AID 1529);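 also: Alexa488 bead fluorescence after subtracting the streptavidin-only scavenger bead signal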
# Experimental parameters: bead-based flow cytometry, Alexa488-MEK5 binding to MEKK3; at 10 µM; actives lie on both sides; 0 = blocked by unlabeled MEK5, 100 = vehicle
Out of some 290,000 compounds screened, about 4,200 (1.4%) were called active. The entries come from a sample that favours actives as a whole.
Kindly answer with a numeric value in %, unit omitted.

[in] # get_value(readout='binding response (% of control)', item= O=C(N/N=C/c1ccc(OCc2ccccc2)cc1)c1ccc(O)cc1 )
[out] 119

[in] Entry C#CC(C)(C)NC(=O)c1cnc(-c2ccccc2)nc1-c1ccccc1 has what binding response (% of control)?
[out] 105

[in] Form field: reported binding response (% of control) of CS(=O)(=O)N(CC(=O)N1CCOCC1)c1cccc(Cl)c1Cl
[out] 102

[in] Suppose we examine the compound O=C(Nc1ccc(C(=O)O)cc1)/C(=C/c1ccc([N+](=O)[O-])cc1)NC(=O)c1ccccc1 ; what binding response (% of control) value has been reported?
[out] 97

[in] binding response (% of control) lookup needed for CC1(c2ccc3ccccc3c2)NC(=O)NC1=O (stereo not given) , thanks.
[out] 106
